So I've got a bunch of compounds here, and I need their growth values.
# Tested on: COLO 205 colon
# TEST: NCI-60 one-dose screen, 48 h (100 = growth as untreated, 0 = no growth, -100 = all killed)
# TEST CONTEXT: 10 µM unless noted
# Experimental: Cells are grown in 96 well plates and exposed to the test compound for 48 hours. Compounds are tested at a single concentration, which is 10^-5 M for most compounds. The reported endpoint is percent growth (GI% or GIPRCNT), where numbers from 0 - 100% represent growth inhibition, and numbers from -100% - 0 represent cell death. For example, a value of 40 represents 60% growth inhibition. A value of 0 means no net growth occurred over the course of the experiment. […]
This is part of a sample that, as a whole, favours compounds with a hit. Of some 83,000 tested, about 20% had one in any assay. Activity calls are given as the source filed them. The calls were made as follows: active = growth percent below 10; inactive = the rest.

The cases that follow already have their growth on record.
INSERT INTO assay_data (compound, result) VALUES
  ('CCOC(=O)N1CCN(CCCCOc2ccc(C(C)(C)CC)cc2)CC1', '105% (inactive)'),
  ('C=C(C)[C@@H]1CC[C@]2(C)[C@H](CC=C3[C@@H]4CC(C)(C)CC[C@]4(C(=O)OC)CC[C@]32C)[C@@]1(C)CC/C(N)=N/O', '35.6% (inactive)'),
  ('C[C@@H](Oc1ccc(C(=O)NS(=O)(=O)C(C)(C)C)cc1C(F)(F)F)c1ccc(Oc2ccccc2)cn1', '48.7% (inactive)'),
  ('Cn1cc(-c2csc(-c3c[nH]c4ccccc34)n2)c2cccnc21', '9.57% (active)'),
  ('Oc1cccc2ccc(N/N=C/c3cc(CN4CCCCC4)c(O)c4ncccc34)nc12', '8.41% (active)'),
  ('COc1cc(/C=C2\C(=O)N(CC(O)COc3cc(O)c4c(=O)cc(-c5ccccc5)oc4c3)c3ccccc32)cc(OC)c1O (stereo unspecified)', '113% (inactive)');

Provide reported growth for each item, in the same order as listed.
1. CCc1ccc(-c2ccc(Nc3ccccc3)nn2)cc1S(N)(=O)=O
2. N#Cc1cnc2cc(OC[C@@H](O)CO)c(NC(=O)C3CCCC3)cc2c1Nc1ccc(OCc2cccc(F)c2)c(Cl)c1
3. Cn1c(=O)c2c(ncn2CC(=O)Nc2ccc(S(N)(=O)=O)cc2)n(C)c1=O
4. CC(=O)NC1=C(C#N)C(c2ccccc2Cl)c2c(ccc3ccccc23)O1 (stereo unspecified)
5. COC(=O)[C@]12CC[C@@H](C)[C@H](C)[C@@H]1C1=CC[C@@H]3[C@@]4(C)C=C(O)C(=O)C(C)=C4CC[C@@]3(C)[C@]1(C)CC2

[out]
94.8% (inactive)
49.6% (inactive)
105% (inactive)
79.5% (inactive)
37.1% (inactive)
